System: UO-31
Experiment: NCI tumour cell line growth inhibition, 48 h
The source made the active and inactive calls. No stated cut-off is given here; in the data, active = GI50 up to about 1.1 µM and inactive = higher.

# COMPOUND, GI50
measured = [
    ("Brc1c2c(c(Br)c3nsnc13)N=S=N2", "22.8 µM (inactive)"),
    ("COc1cccc(C=O)c1[O-].COc1cccc(C=O)c1[O-].[Zn+2]", "28.2 µM (inactive)"),
    ("O=C(O)c1cc(-c2ccncc2)nc2ccccc12", "> 100 µM (inactive)"),
    ("NC(=S)N/N=C1/C(=O)N(c2ccccc2)C(=O)C1C(=O)Nc1ccccc1 (stereo not given)", "> 100 µM (inactive)"),
    ("CCOC(=O)n1cncc1CC(NC(=O)Cc1c(C(=O)C=C(C)C)[nH]c2ccccc12)C(=O)OC (stereo not given)", "15.7 µM (inactive)"),
    ("COC(=O)C1=C2SCc3cccc(c3)CSC3=C(C(=O)OC)SC(=C(S2)S1)S3", "> 100 µM (inactive)"),
    ("CN(C)c1ccc(/C=C2\\C[C@H]3[C@@H]4CCC5=CC(=O)CC[C@]5(C)[C@H]4CC[C@]3(C)C2=O)cc1", "63.2 µM (inactive)"),
    ("COc1cc(C(c2ccc3c(c2)OCO3)N2C(=O)CCC2C(=O)O)cc(OC)c1OC (stereo not given)", "> 100 µM (inactive)"),
    ("CCOP(=O)(OCC)C(C)(C)OC(=O)NC#N", "> 100 µM (inactive)"),
    ("O=C1c2cn[nH]c2N=C(Nc2ccccc2)C1/N=C/c1ccc([N+](=O)[O-])cc1 (stereo not given)", "> 10 µM (inactive)"),
]
